test: cytotoxicity by neutral red dye uptake assay; assay type: cell-based; conditions: African green monkey
MEASURED PARAMETER: CC50 at 2 days

Name the recorded CC50 at 2 days for O=C(O)c1ccccn1 [Picolinic acid, reference compound] .
~800 µg/mL

----------
assay: cytotoxicity by neutral red dye uptake assay; format: cell-based; settings: African green monkey; Vero cells; read-out: cytotoxic concentration giving 50% of cell death (CC50)
MEASURED PARAMETER: CC50 at 2 days

Name the recorded CC50 at 2 days for "CCCCc1ccc(C(=O)O)nc1" .
~100 µg/mL
